- PROTOCOL_NOTES: BET inhibitor-based combinations targeting novel dependencies in MECOM-rearranged (r) AML: AML-191 cell line (AID 2202236; also: nearly all actives have a fitted effect of over 35% in size)
- CONDITION_INFO: AML-191 viability, CellTiter-Glo luminescence, 48 h; series mostly up to 46 µM
Inconclusive results are not listed. Activity calls are given as the source filed them. Calls follow the shape of the dose curve; as a rule, active = well fitted inhibition curve with a large enough effect; inconclusive = small, poorly fitted or top-dose-only effect; inactive = flat fitted curve, though single readings scatter. Non-standard residues stand in square brackets, D forms with d. Residues, ends and D or L forms follow the SMILES beside them. *: point of attachment. Benzoyl(4-tBu) = CC(C)(C)c1ccc(C(=O)*)cc1; Lys(Et2) = CCN(CC)CCCC[C@H](N)C(=O)O
Write down one outcome, taken from active, inactive

Use the examples below as a reference point.
COCCOC(=O)C1=C(C)NC2=C(C(=O)CC(c3ccccc3OC)C2)C1c1cccc(O)c1 (stereo unspecified) | active
CNC(=O)[C@H]1O[C@@H](n2cnc3c(NCc4cccc(I)c4)nc(Cl)nc32)[C@H](O)[C@@H]1O | inactive
CCC(=C/[C@H](C)C/C=C/C(C)=C/[C@@H](C)C(=O)[C@@H](C)[C@H](O)[C@@H](C)C/C(C)=C/C(=O)O)/C=C/[C@@H]1OC(=O)C=C[C@@H]1C | active
C[C@@H]1COCCN1c1cc(C2(S(C)(=N)=O)CC2)nc(-c2ccnc3[nH]ccc23)n1 (stereo partly specified) | active
C/C(=N\NC(=O)c1cccc(S(=O)(=O)N2CCOCC2)c1)c1cc(Cl)ccc1O | active
Cc1ccc(C)c(OCCCC(C)(C)C(=O)O)c1 | inactive
CCN(CC)CCCC[C@H](NC(=O)[C@H](CC(C)C)NC(=O)[C@H](C)NC(=O)[C@H](Cc1ccccc1)NC(=O)c1ccc(C(C)(C)C)cc1)C(=O)N[C@@H](CO)C(=O)OC ({Benzoyl(4-tBu)}-FAL[Lys(Et2)]S-OMe) | inactive
O=C(NCc1ccccc1)[C@H](Cc1ccccc1)NC(=O)[C@H]1O[C@@H]1C(=O)NCCc1ccc(O)cc1 | inactive
CN1C(=O)N[C@H](Cc2c[nH]c3c(Cl)cccc23)C1=O | inactive
COc1ccc(OC)c(-c2nnc3ccc(-c4ccc(OC)c(O[C@@H]5CCOC5)c4)nn23)c1 | active

*Q* Tell me the recorded outcome of this test for CCNCCS(=O)(=O)NC[C@@]1(c2ccccc2)SC(NC(=O)C(C)(C)C)=NN1C(=O)C(C)(C)C .
*A* active

---

- MEASUREMENT_TARGET: Retinaldehyde dehydrogenase 3 (Homo sapiens) (UniProt P47895)
- PROTOCOL_NOTES: qHTS for Inhibitors of the Aldehyde Dehydrogenase Family (ALDH1A3) Confirmatory screens (AID 2061311); also: nearly all actives have a fitted effect of over 60% in size
- CONDITION_INFO: ALDH inhibition qHTS; series mostly up to 46 µM
Results filed as inconclusive are left out. Calls of active or inactive are those of the source. The call rests on the fitted dose curve; in most records, active means well fitted inhibition curve with a large enough effect; inconclusive means small, poorly fitted or top-dose-only effect; inactive means no such curve, though single readings can be large or run the other way.
Write down one outcome, taken from yes (1) = active, no (0) = inactive

Use the examples below as a reference point.
CC(=O)N1CCN(c2nc(-c3ccc(Br)cc3)cs2)CC1 | yes (1)
Cn1ncc2c(C(=O)NCc3ccc(F)cc3)cc(-c3ccc(F)cc3)nc21 | no (0)
Cc1ccc(CCN2C(=O)c3ccc(C(=O)O)cc3C2=O)cc1 | no (0)
O=C(Nc1cccc(-c2nn3c(=O)cc(N4CCNCC4)nc3s2)c1)c1ccncc1 | yes (1)
Cc1ccc(-c2cnn(CC(=O)NCCc3ccccc3)c(=O)c2)cc1 | yes (1)
FC(F)(F)c1ccccc1-c1nc(NCc2ccc(-c3ccccc3)cc2)c2ccccc2n1 | yes (1)

*Q* Tell me the recorded outcome of this test for O=C(Nc1ccc([C@@H](O)[C@H]2COCC(=O)N2CCCc2ccccc2)cc1)c1ccco1 .
*A* no (0)

*Q* Tell me the recorded outcome of this test for Cc1nonc1OCCn1cc(-c2ccc(CO)o2)nn1 .
*A* no (0)

*Q* Tell me the recorded outcome of this test for COc1ccc(-c2ccc(C)cc2)cc1CC(=O)N(C)C(C)c1ccco1 (stereo not given) .
*A* yes (1)

*Q* Tell me the recorded outcome of this test for Cc1c(C(=O)OC[C@H]2CCCO2)[nH]c2c1C(=O)CC(c1ccco1)C2 (stereo not given in full) .
*A* yes (1)

Value source: PubChem BioAssay (NCATS)
